test system: HEK-293T; experiment: Incucyte cell viability with HEK293T; format: toxicity, cell-based; conditions: human, 6 h, 10 µM, compound concentration 10 uM, replicate number 1, timepoint 6 hours; further: unitless GR value; below 1 slowed growth and below 0 cell loss
REPORTED PROPERTY: Growth Rate
The answer should be a number; do not append a unit.

Examples with answers:
1) COC[C@@H](CC(C)C)NC1=N/C(=C\c2ccc3ncsc3c2)C(=O)N1C; 0.84
2) O=C(CCCc1ccccc1)Nc1nc2ccccc2c(=O)s1; 0.03
3) COc1c(C)cc(NC(=O)c2nn(Cc3ccc(F)cc3)c3c2CN(C(=O)c2ccc[nH]2)C[C@]3(C)C(N)=O)cc1C; 0.35
4) O=C(O)c1n[nH]c2c1C[C@H]1C[C@@H]21; 0.55
5) OCCN1CCN(CCCN2c3ccccc3Sc3ccc(Cl)cc32)CC1; 0.12

### Prompt Any idea what its Growth Rate is? The compound is `CN(c1ncccc1CNc1ccnc(-c2nc3c(F)c(Cl)ccc3[nH]2)n1)S(C)(=O)=O`
### Response 0.84

### Prompt Any idea what its Growth Rate is? The compound is `N[C@](CC1c2ccccc2Oc2ccccc21)(C(=O)O)[C@H]1C[C@@H]1C(=O)O`
### Response 0.42

### Prompt Any idea what its Growth Rate is? The compound is CC(C)NCC(O)COc1cccc2[nH]ccc12 (stereo not given)
### Response 0.7

### Prompt Any idea what its Growth Rate is? The compound is `CN(C)CCCc1cc(C(=O)Nc2ccc(-c3ccncc3)cc2)ccc1O.Cl.Cl`
### Response 0.98

### Prompt Any idea what its Growth Rate is? The compound is `O=C(O)CCC/C=C\C[C@H]1C(=O)C[C@@H](O)[C@@H]1/C=C/[C@@H](O)CCc1ccccc1`
### Response 0.8

### Prompt Any idea what its Growth Rate is? The compound is `CNc1nc(NCc2ncccn2)c2c(-c3ccc4ncccc4c3)c[nH]c2n1`
### Response 0.37

### Prompt Any idea what its Growth Rate is? The compound is O=C(NCc1ccc(F)cc1)N1CCN2C(=O)OC(c3ccccc3)(c3ccccc3)C2C1 (stereo not given)
### Response 0.88
